- system.name: T1, human CD33 extracellular domain (human, UniProt P20138 18-259)
- T1 construct: soluble monomeric ECD; also called human CD33 ECD; hCD33
- measurement.description: SPR, Fab captured, 37C;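 also: Anti-CD33 Fabs captured on anti-Fab chip, soluble monomeric CD33 or its domains flowed over at several concentrations, double-referenced data fitted 1:1, Kd taken as koff/kon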
property.measured: koff (s⁻¹)

- binder: "ADI-10161 Fab (Fab, V domains shown, Fab fragment; also called Ab16) VH: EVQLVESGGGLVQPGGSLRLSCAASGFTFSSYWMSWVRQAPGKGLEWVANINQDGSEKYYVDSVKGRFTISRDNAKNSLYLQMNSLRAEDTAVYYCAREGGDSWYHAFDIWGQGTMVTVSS VL: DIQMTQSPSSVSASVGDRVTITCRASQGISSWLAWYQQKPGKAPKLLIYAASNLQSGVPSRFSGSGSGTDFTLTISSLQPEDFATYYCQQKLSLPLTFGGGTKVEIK"
  readout.unit: "s⁻¹"
  observed: 0.0118
- binder: "ADI-11825 Fab (Fab, V domains shown, Fab fragment; also called Ab25) VH: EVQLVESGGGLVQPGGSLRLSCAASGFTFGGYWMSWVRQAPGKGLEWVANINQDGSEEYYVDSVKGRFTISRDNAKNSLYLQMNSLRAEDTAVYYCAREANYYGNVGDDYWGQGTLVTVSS VL: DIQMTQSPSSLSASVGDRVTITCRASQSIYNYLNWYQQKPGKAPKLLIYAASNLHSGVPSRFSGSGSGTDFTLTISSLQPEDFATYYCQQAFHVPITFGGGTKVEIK"
  readout.unit: "s⁻¹"
  observed: 0.0038
- binder: "ADI-10157 Fab (Fab, V domains shown, Fab fragment; also called Ab13) VH: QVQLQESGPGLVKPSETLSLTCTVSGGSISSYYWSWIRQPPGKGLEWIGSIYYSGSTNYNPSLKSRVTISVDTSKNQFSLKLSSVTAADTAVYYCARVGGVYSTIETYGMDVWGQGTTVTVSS VL: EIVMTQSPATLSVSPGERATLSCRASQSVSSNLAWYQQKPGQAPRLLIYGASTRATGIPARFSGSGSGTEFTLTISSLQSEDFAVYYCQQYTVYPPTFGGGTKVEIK"
  readout.unit: "s⁻¹"
  observed: 0.0076

The measurements presented in this section are drawn from patent US20220380459A1.
